Molecular target: Tubulin (Homo sapiens) (UniProt P68371+Q9H4B7+P0DPH7+P68366+Q13509+Q71U36+P04350+Q3ZCM7+P07437+P68363+Q9BQE3+Q6PEY2+Q13885+Q9BVA1+Q9BUF5)
Test: Inhibition of tubulin polymerization in human Hep2 cells at 100 uM after 3 hrs by DAPI-staining based fluorescence microscopic assay
Format: cell-based
Settings: HEp-2
Calls of active or inactive are those of the source. No cut-off for these calls is given here.
Observable: inhibition

>  <Sample Smiles>
CCCC#Cc1cc([C@@H]2O[C@H](CO)[C@@H](O)[C@H]2O)n2ncnc(N)c12

>  <Observable>
inhibition

>  <Observed Result>
Active

$$$$
>  <Sample Smiles>
Nc1ncnn2c([C@@H]3O[C@H](CO)[C@@H](O)[C@H]3O)cc(/C=C/c3ccccc3)c12

>  <Observable>
inhibition

>  <Observed Result>
Active

$$$$
>  <Sample Smiles>
Nc1ncnn2c([C@@H]3O[C@H](CO)[C@@H](O)[C@H]3O)cc(C#CC3CC3)c12

>  <Observable>
inhibition

>  <Observed Result>
Active

$$$$
>  <Sample Smiles>
CCCCC#Cc1cc([C@@H]2O[C@H](CO)[C@@H](O)[C@H]2O)n2ncnc(N)c12

>  <Observable>
inhibition

>  <Observed Result>
Active

$$$$

Now examine the next entry.
Value of measured inhibition for the entry "Nc1ncnn2c([C@@H]3O[C@H](CO)[C@@H](O)[C@H]3O)cc(-c3ccoc3)c12" : Active

###

Can you tell me Activity for the items I'm about to list?
Test system: HEp-2
Assay: Induction of DNA damage in human Hep2 cells assessed as gamma-H2AX positive cells at 1 uM after 24 hrs by DAPI staining based immunofluorescence analysis relative to control
Type: functional
Please make sure the unit comes right after the number.

Here's what some known entries look like.
>  <Compound>
CCCCC#Cc1cc([C@@H]2O[C@H](CO)[C@@H](O)[C@H]2O)n2ncnc(N)c12

>  <Observed Result>
0.31%

$$$$
>  <Compound>
CCCC#Cc1cc([C@@H]2O[C@H](CO)[C@@H](O)[C@H]2O)n2ncnc(N)c12

>  <Observed Result>
1.14%

$$$$
>  <Compound>
COc1cc([C@@H]2c3cc4c(cc3[C@@H](O[C@@H]3O[C@@H]5CO[C@@H](C)O[C@H]5[C@H](O)[C@H]3O)[C@H]3COC(=O)[C@H]23)OCO4)cc(OC)c1O [ETOPOSIDE]

>  <Observed Result>
1.66%

$$$$
>  <Compound>
Nc1ncnn2c([C@@H]3O[C@H](CO)[C@@H](O)[C@H]3O)cc(-c3ccoc3)c12

>  <Observed Result>
0.13%

$$$$
>  <Compound>
Nc1ncnn2c([C@@H]3O[C@H](CO)[C@@H](O)[C@H]3O)cc(C#CC3CC3)c12

>  <Observed Result>
3.22%

$$$$

Now take the following compound into account.
Considering "Nc1ncnn2c([C@@H]3O[C@H](CO)[C@@H](O)[C@H]3O)cc(/C=C/c3ccccc3)c12" , its Activity with HEp-2 was recorded as 0.05%

###

Tested on: HEp-2
Test: Induction of DNA damage in human Hep2 cells assessed as gamma-H2AX positive cells at 100 uM after 24 hrs by DAPI staining based immunofluorescence analysis (reference value: 0.51%)
Type: functional
Threshold check on Activity: strictly below 4% is MET; on or above 4% is NOT MET.

Completed entries (count: 3):
>  <Compound>
COc1cc([C@@H]2c3cc4c(cc3[C@@H](O[C@@H]3O[C@@H]5CO[C@@H](C)O[C@H]5[C@H](O)[C@H]3O)[C@H]3COC(=O)[C@H]23)OCO4)cc(OC)c1O [ETOPOSIDE]

>  <Label Class>
NOT MET

$$$$
>  <Compound>
Nc1ncnn2c([C@@H]3O[C@H](CO)[C@@H](O)[C@H]3O)cc(-c3ccoc3)c12

>  <Label Class>
MET

$$$$
>  <Compound>
Nc1ncnn2c([C@@H]3O[C@H](CO)[C@@H](O)[C@H]3O)cc(/C=C/c3ccccc3)c12

>  <Label Class>
MET

$$$$

Asked: Does the reported Activity of "CCCC#Cc1cc([C@@H]2O[C@H](CO)[C@@H](O)[C@H]2O)n2ncnc(N)c12" stay below 4%?
Given back: NOT MET

Asked: # check: Activity < 4% for "CCCCC#Cc1cc([C@@H]2O[C@H](CO)[C@@H](O)[C@H]2O)n2ncnc(N)c12"
Given back: MET

Asked: Confirm or reject: Activity of "Nc1ncnn2c([C@@H]3O[C@H](CO)[C@@H](O)[C@H]3O)cc(C#CC3CC3)c12" lies strictly below 4%
Given back: NOT MET

###

Test system: Z-138
Assay: Antiproliferative activity against human Z138 cells assessed as reduction in cell viability incubated for 72 hrs by IncuCyte live-cell imaging assay
Format: functional, cell-based
Conditions: Z-138, 72 h
One threshold, 70 µM, splits the recorded IC50 values: lower ones are true, equal or higher ones are false.

// below: answered molecules
>  <Sample Smiles>
COc1ccc(-c2cc([C@@H]3O[C@H](CO)[C@@H](O)[C@H]3O)n3ncnc(N)c23)cc1

>  <Label Class>
true

$$$$
>  <Sample Smiles>
Cc1ccccc1-c1cc([C@@H]2O[C@H](CO)[C@@H](O)[C@H]2O)n2ncnc(N)c12

>  <Label Class>
true

$$$$
>  <Sample Smiles>
Nc1ncnn2c([C@@H]3O[C@H](CO)[C@@H](O)[C@H]3O)cc(-c3ccccc3Cl)c12

>  <Label Class>
false

$$$$
>  <Sample Smiles>
Nc1ncnn2c([C@@H]3O[C@H](CO)[C@@H](O)[C@H]3O)cc(C#Cc3cccs3)c12

>  <Label Class>
true

$$$$
>  <Sample Smiles>
Nc1ncnn2c([C@@H]3O[C@H](CO)[C@@H](O)[C@H]3O)cc(-c3ccc(F)cc3)c12

>  <Label Class>
false

$$$$

Asked: Please indicate whether the reported IC50 of "Nc1ncnn2c([C@@H]3O[C@H](CO)[C@@H](O)[C@H]3O)cc(-c3ccccc3F)c12" is strictly below 70 µM.
Given back: false

Asked: A record lists "Nc1ncnn2c([C@@H]3O[C@H](CO)[C@@H](O)[C@H]3O)cc(/C=C/c3ccccc3)c12" . Is its IC50 below 70 µM?
Given back: true

Asked: Strictly below 70 µM in IC50? "Nc1ncnn2c([C@@H]3O[C@H](CO)[C@@H](O)[C@H]3O)cc(C#Cc3ccc(F)cc3)c12"
Given back: false

Asked: Dear colleague, could you confirm whether IC50 of "Nc1ncnn2c([C@@H]3O[C@H](CO)[C@@H](O)[C@H]3O)cc(-c3ccoc3)c12" falls below 70 µM? Thanks.
Given back: true

Asked: Determine whether this molecule shows IC50 lower than 70 µM (ties excluded): "Nc1ncnn2c([C@@H]3O[C@H](CO)[C@@H](O)[C@H]3O)cc(C#CC3CC3)c12"
Given back: true

Asked: Report whether reported IC50 is lower than 70 µM (strictly) for "CCCCC#Cc1cc([C@@H]2O[C@H](CO)[C@@H](O)[C@H]2O)n2ncnc(N)c12"
Given back: true

###

Tested on: NCI-H460
Assay: Antiproliferative activity against human NCI-H460 cells assessed as reduction in cell viability incubated for 72 hrs by IncuCyte live-cell imaging assay
Assay type: functional, cell-based
Conditions: NCI-H460, 72 h
pIC50: −log10 of the molar value.
I would appreciate it if you labelled entries yes (1) when pIC50 is 6 or higher, otherwise no (0).

>  <Molecule>
Nc1ncnn2c([C@@H]3O[C@H](CO)[C@@H](O)[C@H]3O)cc(C#CC3CC3)c12

>  <Label Class>
yes (1)

$$$$
>  <Molecule>
Nc1ncnn2c([C@@H]3O[C@H](CO)[C@@H](O)[C@H]3O)cc(-c3ccc(F)cc3F)c12

>  <Label Class>
no (0)

$$$$
>  <Molecule>
CC(=O)O[C@@]12CO[C@@H]1C[C@H](O)[C@@]1(C)C(=O)[C@H](O)C3=C(C)[C@@H](OC(=O)[C@H](O)[C@@H](NC(=O)OC(C)(C)C)c4ccccc4)C[C@@](O)([C@@H](OC(=O)c4ccccc4)[C@H]21)C3(C)C [DOCETAXEL ANHYDROUS]

>  <Label Class>
yes (1)

$$$$
>  <Molecule>
Nc1ncnn2c([C@@H]3O[C@H](CO)[C@@H](O)[C@H]3O)cc(C#Cc3ccc(F)cc3)c12

>  <Label Class>
no (0)

$$$$
>  <Molecule>
Nc1ncnn2c([C@@H]3O[C@H](CO)[C@@H](O)[C@H]3O)cc(-c3ccccc3Cl)c12

>  <Label Class>
no (0)

$$$$

In the following, a different molecule is considered.
Asked: Is the recorded value of pIC50 equal to or greater than 6 for this molecule? "CCCC#Cc1cc([C@@H]2O[C@H](CO)[C@@H](O)[C@H]2O)n2ncnc(N)c12"
Given back: yes (1)
